Target: tau fibrils (htau 0N4R) (Homo sapiens, UniProt P10636)
Sequence (P10636 1-383 isoform P10636-6): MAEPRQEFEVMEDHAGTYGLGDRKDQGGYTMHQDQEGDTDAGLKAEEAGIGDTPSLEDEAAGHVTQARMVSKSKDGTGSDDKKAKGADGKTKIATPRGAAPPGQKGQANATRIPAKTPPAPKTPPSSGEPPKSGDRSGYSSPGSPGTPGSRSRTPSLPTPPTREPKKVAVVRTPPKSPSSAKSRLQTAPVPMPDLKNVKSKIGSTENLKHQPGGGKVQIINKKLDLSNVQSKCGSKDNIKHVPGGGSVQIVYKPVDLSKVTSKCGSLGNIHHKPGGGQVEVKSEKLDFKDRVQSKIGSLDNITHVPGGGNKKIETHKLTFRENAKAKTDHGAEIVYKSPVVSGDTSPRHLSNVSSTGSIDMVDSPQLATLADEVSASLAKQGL
Test: Fluorescence titration with tau fibrils
Conditions: monodisperse BTA dimers; 0.5 μM tau; PBS 1× pH 7.4, 298 K; errors at 95% confidence limit; read-out: Dissociation constant (Kd) for binding to tau fibrils
Collected Kd values appear next to each entry.

| entry-smiles | units | Kd |
| --- | --- | --- |
| CN(C)c1ccc(-c2nc3ccc(OCCOCCOCCOCCOCCOCCOCCOCCOCCOc4ccc5nc(-c6ccc(N(C)C)cc6)sc5c4)cc3s2)cc1 | µM | 1 |
| CN(C)c1ccc(-c2nc3ccc(OCCOCCOCCOCCOCCOCCOc4ccc5nc(-c6ccc(N(C)C)cc6)sc5c4)cc3s2)cc1 | µM | 0.9 |
| CN(C)c1ccc(-c2nc3ccc(OCCOCCOCCOCCOCCOCCOCCOCCOCCOCCOCCOCCOCCOCCOCCOCCOCCOCCOCCOCCOCCOc4ccc5nc(-c6ccc(N(C)C)cc6)sc5c4)cc3s2)cc1 | µM | 0.28 |
| CN(C)c1ccc(-c2nc3ccc(OCCOCCOCCOCCOCCOCCOCCOCCOCCOCCOCCOCCOCCOCCOCCOc4ccc5nc(-c6ccc(N(C)C)cc6)sc5c4)cc3s2)cc1 | µM | 0.11 |

Data origin, for the record: paper PMC8246084
